# Tested on: rodent lifetime carcinogenesis bioassay, tumor incidence TD50
# Assay Notes: carcinogenic potency in animals, long-term in vivo studies, CPDB compilation (AID 1745844)
# Test Parameters: rat; strain Wistar; both sexes; i.p.; site: kidney; lesion: one or several types; types not named; dosed 26 weeks; study length 78 weeks
Measurement Kind: TD50 (mg/kg/day)
All answers are understood in mg/kg/day, so give the number only.

Briefly, TD50 measured for [N-]=[N+]=CC(=O)OC[C@H](N)C(=O)O : 0.942

* * *

# System: rodent lifetime carcinogenesis bioassay, tumor incidence TD50
# Assay Notes: carcinogenic potency in animals, long-term in vivo studies, CPDB compilation (AID 1745844)
# Test Parameters: rat; strain Fischer 344; females; in feed; site: kidney; lesion: transitional-cell papilloma; dosed 27 weeks; study length 104 weeks
Measurement Kind: TD50

Please fill in: TD50 reported for COc1ccccc1[N+](=O)[O-] = 1890 mg/kg/day
